From: paper PMC2874077

# SYSTEM_NAME: UniProt:P05089
# Sequence (P05089 whole entry): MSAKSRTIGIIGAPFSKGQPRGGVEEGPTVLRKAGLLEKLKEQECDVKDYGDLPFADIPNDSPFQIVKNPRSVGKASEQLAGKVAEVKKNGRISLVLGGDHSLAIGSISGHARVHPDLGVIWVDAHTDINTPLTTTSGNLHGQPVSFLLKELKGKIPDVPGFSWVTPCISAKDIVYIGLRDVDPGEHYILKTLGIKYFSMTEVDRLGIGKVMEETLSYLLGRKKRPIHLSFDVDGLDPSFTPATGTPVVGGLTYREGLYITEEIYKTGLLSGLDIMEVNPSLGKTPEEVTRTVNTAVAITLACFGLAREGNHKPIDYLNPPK
# EXPERIMENT_SUMMARY: Fixed-point kinetic assay with [14C-guanidino]-L-arginine
# Type: biochemical
# APPLIED_CONDITIONS: from Lineweaver-Burk plots

[
  {
    "MOLECULE": "Nc1ncc[nH]1 [2-Aminoimidazole, reference compound]",
    "mode of inhibition": "noncompetitive"
  },
  {
    "MOLECULE": "Nc1ncc(C[C@H](N)C(=O)O)[nH]1",
    "mode of inhibition": "noncompetitive"
  },
  {
    "MOLECULE": "Nc1ncc(CC[C@H](N)C(=O)O)[nH]1",
    "mode of inhibition": "competitive"
  },
  {
    "MOLECULE": "Nc1nccn1CCC[C@H](N)C(=O)O",
    "mode of inhibition": "competitive"
  }
]
